# experimental_system: EGLN1
# procedure_summary: cell-based or functional assay
Where no end group is shown, it is not given here.

- binder: "DTDLDDEALAPYIPADDDFQ [DTDLDDEALApYIPADDDFQ]"
  Activity (%)*: 51
- binder: "DTDLDTEAYAPYIPADDDFQ (not fully specified; printed as DTDLDTEAYApYIPADDDFQ) [DTDLDTEAYApYIPADDDFQ]"
  Activity (%)*: 24.1
- binder: "DTDLDAEAAAPYIPADDDFQ [DTDLDAEAAApYIPADDDFQ]"
  Activity (%)*: 12.6
- binder: "DTDLDNEALAPYIPADDDFQ (not fully specified; printed as DTDLDNEALApYIPADDDFQ) [DTDLDNEALApYIPADDDFQ]"
  Activity (%)*: 27.1

From: patent US20080113383A1
